# tested-on: UniProt:P27338
# Sequence (P27338 whole entry): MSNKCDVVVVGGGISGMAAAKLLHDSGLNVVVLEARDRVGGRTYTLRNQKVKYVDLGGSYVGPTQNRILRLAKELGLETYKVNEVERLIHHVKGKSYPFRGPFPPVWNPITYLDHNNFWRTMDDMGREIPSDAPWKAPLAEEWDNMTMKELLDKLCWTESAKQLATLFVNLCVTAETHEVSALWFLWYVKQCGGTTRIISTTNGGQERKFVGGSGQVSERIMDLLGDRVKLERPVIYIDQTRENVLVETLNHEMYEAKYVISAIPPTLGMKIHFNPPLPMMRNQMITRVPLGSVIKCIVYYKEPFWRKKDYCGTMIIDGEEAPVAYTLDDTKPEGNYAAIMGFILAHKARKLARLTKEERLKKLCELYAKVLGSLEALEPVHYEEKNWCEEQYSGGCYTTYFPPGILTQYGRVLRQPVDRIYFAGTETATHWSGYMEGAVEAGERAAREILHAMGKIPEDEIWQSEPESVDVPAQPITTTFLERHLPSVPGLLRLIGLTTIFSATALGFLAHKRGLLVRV
# test-method-notes: Inhibition of MAO-B (unknown origin)
endpoint: pIC50
Just so you know, pIC50 here is -log10 of the concentration in molar units; reply with that number alone.

Q: What pIC50 value was documented for this molecule, Cc1c(C)c2ccc(OCc3nnc(C(C)C)s3)cc2oc1=O ?
Ans: 9.05

---

# Organism: Homo sapiens
# test-method-notes: Selectivity index, ratio of IC50 for human MAO-A to IC50 for human MAO-B
endpoint: Ratio IC50

Q: Quick one: Ratio IC50 of O=c1ccc2ccc(OCCCCCCN3CCN(CCNc4c5c(nc6ccccc46)CCCC5)CC3)cc2o1 ?
Ans: 1.14

Q: Query (compound): Cc1c(Cl)c(=O)oc2cc(OCCN3CCN(CCCNc4c5c(nc6ccccc46)CCCC5)CC3)ccc12 ; field requested: Ratio IC50
Ans: 75.7

---

In this section we review reported Papp at 16 h values for a set of compounds.
# test-method-notes: in vitro
# assay-setup: PAMPA
# Description: Permeability of the compound after 16 hrs by PAMPA
Respond with the bare value in ×10⁻⁶ cm/s.

Q: Item O=c1cc(-c2ccccc2)c2ccc(OCCN3CCN(CCCNc4c5c(nc6ccccc46)CCCC5)CC3)cc2o1 has what recorded Papp at 16 h?
Ans: 7.59

More entries:
Q: Fill in the blank: the reported Papp at 16 h of O=c1cc(C(F)(F)F)c2ccc(OCCN3CCN(CCCNc4c5c(nc6ccccc46)CCCC5)CC3)cc2o1 is ____.
Ans: 5.58

Q: Fill blank: measured Papp at 16 h of the compound O=c1ccc2ccc(OCCCCCCN3CCN(CCCNc4c5c(nc6ccccc46)CCCC5)CC3)cc2o1 is ____.
Ans: 3.4

Q: Please look up its Papp at 16 h: Cc1cc2ccc(OCCN3CCN(CCCNc4c5c(nc6ccccc46)CCCC5)CC3)cc2oc1=O
Ans: 2.95

Q: Would you mind telling me what Papp at 16 h value was observed for O=c1ccc2ccc(OCCCCN3CCN(CCCNc4c5c(nc6ccccc46)CCCC5)CC3)cc2o1 ?
Ans: 2.04

Q: For the compound shown here, O=c1ccc2ccc(OCCCCN3CCN(CCNc4c5c(nc6ccccc46)CCCC5)CC3)cc2o1 , give the reported Papp at 16 h.
Ans: 5.23
